Measured values drawn from paper PMC6858373 for this set.

compounds and their reported pEC50
Target Entity: FGF14:Nav1.6 C-tail complex (Homo sapiens, UniProt Q92915+Q9UQD0)
Construct: polymerase chain reaction (PCR) amplification of the FGF14 open reading frame (nt 1–855); C-terminal fragment of Nav1.6 (amino acids 1763–1976) fused with CD4ΔC-tail (amino acids 1–395); expressed in transfected cells
Sequence (Q92915 1-252 isoform Q92915-2): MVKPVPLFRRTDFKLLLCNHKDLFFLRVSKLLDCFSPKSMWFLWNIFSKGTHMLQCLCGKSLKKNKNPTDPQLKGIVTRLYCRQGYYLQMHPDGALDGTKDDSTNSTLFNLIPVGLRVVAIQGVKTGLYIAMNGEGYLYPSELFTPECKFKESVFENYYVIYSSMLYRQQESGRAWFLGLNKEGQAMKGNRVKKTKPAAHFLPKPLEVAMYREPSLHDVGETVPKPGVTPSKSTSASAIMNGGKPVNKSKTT
Sequence (Q9UQD0 1763-1976 limits assumed): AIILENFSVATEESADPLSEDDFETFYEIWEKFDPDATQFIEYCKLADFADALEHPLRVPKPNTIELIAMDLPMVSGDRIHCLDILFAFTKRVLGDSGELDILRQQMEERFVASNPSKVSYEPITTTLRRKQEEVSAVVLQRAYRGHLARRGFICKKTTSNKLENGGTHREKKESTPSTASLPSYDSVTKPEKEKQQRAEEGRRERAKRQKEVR
Protocol Description: Split-luciferase complementation assay (LCA) in Clone V double stable HEK293 cells
Assay type: cell-based
Setup Conditions: estimated; 8-point dose response 0.25-30 µM, n = 4 per concentration; library compounds; read-out: EC50
pEC50: −log10 of the molar value.

- Compound: "O=c1[nH]c(=O)n([C@H]2C[C@H](O)[C@@H](CO)O2)cc1F [Floxuridine, reference compound]"
  pEC50: 5.61
- Compound: "CC[C@]1(O)C[C@@H]2CN(CCc3c([nH]c4ccccc34)[C@@](C(=O)OC)(c3cc4c(cc3OC)N(C)[C@H]3[C@@](O)(C(=O)OC)[C@H](OC(C)=O)[C@]5(CC)C=CCN6CC[C@]43[C@@H]65)C2)C1 [Vinblastine, reference compound]"
  pEC50: 4.69
- Compound: "CCC1=C[C@@H]2CN(C1)Cc1c([nH]c3ccccc13)[C@@](C(=O)OC)(c1cc3c(cc1OC)N(C)[C@H]1[C@@](O)(C(=O)OC)[C@H](OC(C)=O)[C@]4(CC)C=CCN5CC[C@]31[C@@H]54)C2 [Vinorelbine, reference compound]"
  pEC50: 5.81
- Compound: "CC[C@]1(O)C[C@H]2CN(CCc3c([nH]c4ccccc34)[C@@](C(=O)OC)(c3cc4c(cc3OC)N(C=O)[C@H]3[C@@](O)(C(=O)OC)[C@H](OC(C)=O)[C@]5(CC)C=CCN6CC[C@]43[C@@H]65)C2)C1 [Vincristine, reference compound]"
  pEC50: 6.57
- Compound: "CS(=O)(=O)c1ccc(C(=O)Nc2ccc(Cl)c(-c3ccccn3)c2)c(Cl)c1 [Vismodegib, reference compound]"
  pEC50: 5.72
- Compound: "O=C(O)CCCc1ccc(N(CCCl)CCCl)cc1 [Chlorambucil, reference compound]"
  pEC50: 4.78

====

Protocol Description: in vitro
Setup Conditions: human, Clone V cells
Counter-ions that a name gives are not always drawn.
molecules and their reported viability at 16 h, 30 µM

- Molecule: "CS(=O)(=O)OCCCCOS(C)(=O)=O"
  viability at 16 h, 30 µM [%]: 107
- Molecule: "CC1(C)CNc2cc(NC(=O)c3cccnc3NCc3ccncc3)ccc21"
  viability at 16 h, 30 µM [%]: 99.7
- Molecule: "Cc1[nH]c2ccccc2c1CCNCc1ccc(/C=C/C(=O)NO)cc1"
  viability at 16 h, 30 µM [%]: 106
- Molecule: "S=P(N1CC1)(N1CC1)N1CC1"
  viability at 16 h, 30 µM [%]: 107
- Molecule: "Cc1cc(Nc2cc(N3CCN(C)CC3)nc(Sc3ccc(NC(=O)C4CC4)cc3)n2)[nH]n1"
  viability at 16 h, 30 µM [%]: 106
- Molecule: "CC(=O)[C@]1(O)Cc2c(O)c3c(c(O)c2[C@@H](O[C@H]2C[C@H](N)[C@H](O)[C@H](C)O2)C1)C(=O)c1ccccc1C3=O [Idarubicin hydrochloride]"
  viability at 16 h, 30 µM [%]: 113
- Molecule: "C[C@@H](Oc1cc(-c2cnn(C3CCNCC3)c2)cnc1N)c1c(Cl)ccc(F)c1Cl [Crizotinib, reference compound]"
  viability at 16 h, 30 µM [%]: 102
- Molecule: "Nc1ccn([C@@H]2O[C@H](CO)[C@@H](O)C2(F)F)c(=O)n1 [Gemcitabine hydrochloride]"
  viability at 16 h, 30 µM [%]: 117

====

Target Entity: FGF14:Nav1.6 C-tail complex (Homo sapiens, UniProt Q92915+Q9UQD0)
Construct: polymerase chain reaction (PCR) amplification of the FGF14 open reading frame (nt 1–855); C-terminal fragment of Nav1.6 (amino acids 1763–1976) fused with CD4ΔC-tail (amino acids 1–395); expressed in transfected cells
Protocol Description: Split-luciferase complementation assay (LCA) in Clone V double stable HEK293 cells
Format: cell-based
Where a name gives a salt, the structure may show the parent alone.

- Compound: "OC[C@H]1O[C@@H](n2cnc3c2NC=NC[C@H]3O)C[C@@H]1O"
  Target Entity: "FGF14:Nav1.6 C-tail complex (Homo sapiens, UniProt Q92915+Q9UQD0)"
  Reading Unit: "%"
  Split Luciferase Assay % Lum Set 1: 134.04
- Compound: "CC[C@H](CO)Nc1nc(NCc2ccccc2)c2ncn(C(C)C)c2n1"
  Target Entity: "FGF14:Nav1.6 C-tail complex (Homo sapiens, UniProt Q92915+Q9UQD0)"
  Reading Unit: "%"
  Split Luciferase Assay % Lum Set 1: 32.94
- Compound: "O=NN(CCCl)C(=O)NC1CCCCC1"
  Target Entity: "FGF14:Nav1.6 C-tail complex (Homo sapiens, UniProt Q92915+Q9UQD0)"
  Reading Unit: "%"
  Split Luciferase Assay % Lum Set 1: 101.43
- Compound: "O=NN(CCCl)C(=O)NCCCl"
  Target Entity: "FGF14:Nav1.6 C-tail complex (Homo sapiens, UniProt Q92915+Q9UQD0)"
  Reading Unit: "%"
  Split Luciferase Assay % Lum Set 1: 106.86
- Compound: "C[C@]12CC[C@@H]3c4ccc(OC(=O)N(CCCl)CCCl)cc4CC[C@H]3[C@@H]1CC[C@@H]2OP(=O)(O)O [Estramustine phosphate sodium]"
  Target Entity: "FGF14:Nav1.6 C-tail complex (Homo sapiens, UniProt Q92915+Q9UQD0)"
  Reading Unit: "%"
  Split Luciferase Assay % Lum Set 1: 26.42
- Compound: "C1CN1c1nc(N2CC2)nc(N2CC2)n1"
  Target Entity: "FGF14:Nav1.6 C-tail complex (Homo sapiens, UniProt Q92915+Q9UQD0)"
  Reading Unit: "%"
  Split Luciferase Assay % Lum Set 1: 118.82
- Compound: "CCCS(=O)(=O)Nc1ccc(F)c(C(=O)c2c[nH]c3ncc(Cl)cc23)c1F [PLX4720, reference compound]"
  Target Entity: "FGF14:Nav1.6 C-tail complex (Homo sapiens, UniProt Q92915+Q9UQD0)"
  Reading Unit: "%"
  Split Luciferase Assay % Lum Set 1: 30.77
- Compound: "CC1=C2C[C@H]3[C@@H](CC=C4C[C@@H](O)CC[C@@]43C)[C@@H]2CC[C@]12O[C@@H]1C[C@H](C)CN[C@H]1[C@H]2C"
  Target Entity: "FGF14:Nav1.6 C-tail complex (Homo sapiens, UniProt Q92915+Q9UQD0)"
  Reading Unit: "%"
  Split Luciferase Assay % Lum Set 1: 141.65
- Compound: "S=P(N1CC1)(N1CC1)N1CC1"
  Target Entity: "FGF14:Nav1.6 C-tail complex (Homo sapiens, UniProt Q92915+Q9UQD0)"
  Reading Unit: "%"
  Split Luciferase Assay % Lum Set 1: 104.69
- Compound: "O=P1(N(CCCl)CCCl)NCCCO1 (stereo not shown) [Cyclophosphamide]"
  Target Entity: "FGF14:Nav1.6 C-tail complex (Homo sapiens, UniProt Q92915+Q9UQD0)"
  Reading Unit: "%"
  Split Luciferase Assay % Lum Set 1: 107.95
- Compound: "Oc1ncc(N(CCCl)CCCl)c(O)n1"
  Target Entity: "FGF14:Nav1.6 C-tail complex (Homo sapiens, UniProt Q92915+Q9UQD0)"
  Reading Unit: "%"
  Split Luciferase Assay % Lum Set 1: 76.42
- Compound: "CC/C(=C(\\c1ccccc1)c1ccc(OCCN(C)C)cc1)c1ccccc1 [Tamoxifen citrate]"
  Target Entity: "FGF14:Nav1.6 C-tail complex (Homo sapiens, UniProt Q92915+Q9UQD0)"
  Reading Unit: "%"
  Split Luciferase Assay % Lum Set 1: 4.67
- Compound: "C=C1C[C@@H]2[C@H](CC[C@]3(C)C(=O)CC[C@@H]23)[C@@]2(C)C=CC(=O)C=C12"
  Target Entity: "FGF14:Nav1.6 C-tail complex (Homo sapiens, UniProt Q92915+Q9UQD0)"
  Reading Unit: "%"
  Split Luciferase Assay % Lum Set 1: 109.04

====

Protocol Description: in vitro
Setup Conditions: human
compounds and their reported viability at 16 h, 30 µM

- Chemical String: "CC(=O)O[C@H]1C(=O)[C@@]2(C)[C@H]([C@H](OC(=O)c3ccccc3)[C@]3(O)C[C@H](OC(=O)[C@H](O)[C@@H](NC(=O)c4ccccc4)c4ccccc4)C(C)=C1C3(C)C)[C@]1(OC(C)=O)CO[C@@H]1C[C@@H]2O"
  viability at 16 h, 30 µM (%): 111
- Chemical String: "C[C@@H](CN1CC(=O)NC(=O)C1)N1CC(=O)NC(=O)C1"
  viability at 16 h, 30 µM (%): 115
- Chemical String: "O=C(NCCCNc1nc(Nc2cccc(NC(=O)N3CCCC3)c2)ncc1I)c1cccs1"
  viability at 16 h, 30 µM (%): 103
- Chemical String: "CN(C)c1nc(N(C)C)nc(N(C)C)n1"
  viability at 16 h, 30 µM (%): 103
- Chemical String: "CN(C)/N=N/c1[nH]cnc1C(N)=O"
  viability at 16 h, 30 µM (%): 106
- Chemical String: "NC(=O)c1ccc(N(C(N)=O)c2c(F)cccc2F)nc1-c1ccc(F)cc1F"
  viability at 16 h, 30 µM (%): 105
- Chemical String: "Nc1ncn([C@@H]2O[C@H](CO)[C@@H](O)[C@H]2O)c(=O)n1"
  viability at 16 h, 30 µM (%): 103
